Assignment: determine reported DC50 for the given molecules.
System tested: Cyclin E1 (Homo sapiens, UniProt P24864+Q96SW2)
Sequence (P24864 whole entry, one chain of several): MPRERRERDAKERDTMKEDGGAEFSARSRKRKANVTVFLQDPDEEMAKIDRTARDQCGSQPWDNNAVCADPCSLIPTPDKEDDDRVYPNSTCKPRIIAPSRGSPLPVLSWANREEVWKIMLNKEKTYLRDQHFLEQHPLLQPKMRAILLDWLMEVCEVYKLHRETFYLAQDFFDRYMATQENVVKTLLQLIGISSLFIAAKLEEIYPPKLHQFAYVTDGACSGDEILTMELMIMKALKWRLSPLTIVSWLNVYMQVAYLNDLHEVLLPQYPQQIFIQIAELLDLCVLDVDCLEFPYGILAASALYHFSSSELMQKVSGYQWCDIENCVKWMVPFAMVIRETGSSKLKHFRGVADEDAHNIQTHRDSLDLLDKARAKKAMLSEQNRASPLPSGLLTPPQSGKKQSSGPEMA
Assay summary: Cyclin E1 Cellular Degradation Assay (MSD)
Assay type: cell-based
Set-up: endogenous in cells; host or cells: OVCAR3
Recorded conditions: Cyclin E1 cellular degradation
Numbers only, in µM.

# count of solved cases: 6
COc1c(COC(=O)Nc2ccc(C(C)(C)c3ccccc3)cc2)ccc2c1C(=O)N(C1CCC(=O)NC1=O)C2 (stereo not shown) [Example 41]; 0.336
CC(C)Oc1c(COC(=O)Nc2ccc(Oc3ccc(F)c(F)c3)cc2F)ccc2c1C(=O)N(C1CCC(=O)NC1=O)C2 (stereo not shown) [Example 119]; 0.116
COc1c(COC(=O)Nc2ccc(Nc3cccc(F)c3)cc2)ccc2c1C(=O)N(C1CCC(=O)NC1=O)C2 (stereo not shown) [Example 9]; 0.648
COc1c(COC(=O)Nc2ccc(Oc3cc(F)c(F)cc3C)cc2)ccc2c1C(=O)N(C1CCC(=O)NC1=O)C2 (stereo not shown) [Example 78]; 0.316
COc1c(COC(=O)Nc2ccc(Cc3cccc(F)c3)cc2)ccc2c1C(=O)N(C1CCC(=O)NC1=O)C2 (stereo not shown) [Example 6]; 0.062
COc1cccc(Oc2ccc(NC(=O)OCc3ccc4c(c3OC)C(=O)N(C3CCC(=O)NC3=O)C4)cc2)c1 (stereo not shown) [Example 32]; 0.067

Exam item: Recorded DC50 of COc1c(COC(=O)Nc2ccc(Oc3cccc(F)c3)cc2Cl)ccc2c1C(=O)N(C1CCC(=O)NC1=O)C2 (stereo not shown) [Example 27] , please.
Marked response: 0.093

----------
System tested: GSPT1 (Homo sapiens, UniProt P15170+Q96SW2)
Sequence (P15170 whole entry): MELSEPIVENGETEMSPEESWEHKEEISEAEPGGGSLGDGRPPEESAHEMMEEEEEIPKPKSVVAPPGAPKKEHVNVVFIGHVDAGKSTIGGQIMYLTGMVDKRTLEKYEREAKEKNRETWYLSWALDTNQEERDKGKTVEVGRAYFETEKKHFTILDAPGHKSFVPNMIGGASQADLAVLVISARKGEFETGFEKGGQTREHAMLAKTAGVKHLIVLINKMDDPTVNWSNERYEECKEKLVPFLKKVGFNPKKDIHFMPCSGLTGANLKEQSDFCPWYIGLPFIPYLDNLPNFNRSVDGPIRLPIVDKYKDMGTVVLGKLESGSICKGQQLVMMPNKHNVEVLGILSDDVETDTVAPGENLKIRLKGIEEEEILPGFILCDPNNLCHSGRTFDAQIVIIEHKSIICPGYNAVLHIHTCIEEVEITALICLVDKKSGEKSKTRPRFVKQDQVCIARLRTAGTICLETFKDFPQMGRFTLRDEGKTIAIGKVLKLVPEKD
Sequence (Q96SW2 whole entry): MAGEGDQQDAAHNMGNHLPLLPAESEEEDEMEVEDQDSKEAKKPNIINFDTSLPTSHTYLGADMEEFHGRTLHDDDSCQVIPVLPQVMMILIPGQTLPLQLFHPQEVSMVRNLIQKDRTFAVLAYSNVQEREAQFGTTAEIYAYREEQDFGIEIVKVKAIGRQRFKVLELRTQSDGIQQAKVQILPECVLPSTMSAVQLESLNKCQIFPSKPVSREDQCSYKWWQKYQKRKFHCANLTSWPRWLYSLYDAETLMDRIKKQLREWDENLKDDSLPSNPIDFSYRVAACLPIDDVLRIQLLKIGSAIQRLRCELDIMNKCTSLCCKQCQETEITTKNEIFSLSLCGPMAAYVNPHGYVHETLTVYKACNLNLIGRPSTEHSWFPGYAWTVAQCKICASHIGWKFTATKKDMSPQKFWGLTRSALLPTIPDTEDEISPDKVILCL
Sequence (Q16531 whole entry partner): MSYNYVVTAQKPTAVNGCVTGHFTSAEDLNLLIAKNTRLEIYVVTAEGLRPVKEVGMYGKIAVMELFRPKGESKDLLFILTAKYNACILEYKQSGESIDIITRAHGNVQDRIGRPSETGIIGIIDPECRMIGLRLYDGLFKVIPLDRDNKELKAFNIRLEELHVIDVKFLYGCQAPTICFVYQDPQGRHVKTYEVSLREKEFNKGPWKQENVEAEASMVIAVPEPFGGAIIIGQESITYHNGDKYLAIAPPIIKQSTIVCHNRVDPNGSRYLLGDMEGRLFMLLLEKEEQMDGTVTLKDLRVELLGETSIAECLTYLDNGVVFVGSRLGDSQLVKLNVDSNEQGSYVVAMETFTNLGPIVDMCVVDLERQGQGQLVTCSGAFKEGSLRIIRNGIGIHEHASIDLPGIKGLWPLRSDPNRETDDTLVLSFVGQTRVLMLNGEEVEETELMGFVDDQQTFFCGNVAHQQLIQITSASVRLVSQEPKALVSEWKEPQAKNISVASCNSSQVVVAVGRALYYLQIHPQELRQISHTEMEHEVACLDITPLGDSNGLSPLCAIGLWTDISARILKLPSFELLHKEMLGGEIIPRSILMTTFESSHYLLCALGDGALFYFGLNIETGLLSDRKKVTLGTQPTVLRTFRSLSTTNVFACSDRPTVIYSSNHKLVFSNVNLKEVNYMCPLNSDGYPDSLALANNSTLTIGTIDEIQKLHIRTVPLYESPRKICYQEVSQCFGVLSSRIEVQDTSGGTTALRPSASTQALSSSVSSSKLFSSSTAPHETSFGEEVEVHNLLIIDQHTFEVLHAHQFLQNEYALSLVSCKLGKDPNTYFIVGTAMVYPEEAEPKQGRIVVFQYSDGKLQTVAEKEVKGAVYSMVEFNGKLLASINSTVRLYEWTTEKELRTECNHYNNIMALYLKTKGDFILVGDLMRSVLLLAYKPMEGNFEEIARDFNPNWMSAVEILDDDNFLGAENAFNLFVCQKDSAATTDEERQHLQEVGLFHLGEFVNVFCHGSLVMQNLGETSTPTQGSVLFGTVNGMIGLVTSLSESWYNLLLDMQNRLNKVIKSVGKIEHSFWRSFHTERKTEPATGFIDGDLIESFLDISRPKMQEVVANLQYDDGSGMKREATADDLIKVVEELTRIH
Assay summary: GSPT1 Cellular Degradation Assay (DF15-GSPT1-ePL)
Type: cell-based
Parameters: expressed in transfected cells
Recorded conditions: DF15-GSPT1-ePL cells, 20 hours
Description: DF15-GSPT1-ePL was used for intracellular GSPT1 protein degradation detection in form of chemiluminescent signal, which was built on a human DF15 cell line (CVCL_Y429) with conditional co-expression of chimeric GSPT1 (target) and ePL/donor (enhanced ProLabel® by DiscoverX for enzyme fragment complementation with donor-acceptor pairing). […] Plate signal reading for luminescence on an EnVision plate reader (PerkinElmer) was conducted after 60 minutes of former step at room temperature. […]
Reported endpoint: Dmax (%)
Answers are plain numbers, in %.

Please review the entries below; each comes with its answer.
O=C1CCC(N2Cc3ccc(COC(=O)Nc4ccc(Oc5ccc(F)c(F)c5)cc4)c(O[C@@H]4CCCOC4)c3C2=O)C(=O)N1 (stereo partly shown) [Example 141]; 9
COc1cc(Oc2ccc(F)c(F)c2)ccc1NC(=O)OCc1ccc2c(c1OC)C(=O)N(C1CCC(=O)NC1=O)C2 (stereo not shown) [Example 47]; 20
COc1c(COC(=O)Nc2ccc(Oc3ccc(F)cc3F)cc2F)ccc2c1C(=O)N(C1CCC(=O)NC1=O)C2 (stereo not shown) [Example 30]; 31

Hello, I would appreciate it if you could give Dmax for each entry below.
1. O=C1CCC(N2Cc3ccc(COC(=O)Nc4ccc(Oc5cccc(F)c5F)cc4)c(Oc4ccccc4)c3C2=O)C(=O)N1 (stereo not shown) [Example 68]
2. O=C1CCC(N2Cc3ccc(COC(=O)Nc4ccc(Oc5ccccc5Cl)cc4)c(Oc4ccccc4)c3C2=O)C(=O)N1 (stereo not shown) [Example 66]
3. COc1c(COC(=O)Nc2ccc(Oc3c(F)cccc3F)cc2)ccc2c1C(=O)N(C1CCC(=O)NC1=O)C2 (stereo not shown) [Example 112]
4. COc1c(COC(=O)Nc2ccc(Oc3ccccc3C(F)(F)F)cc2Cl)ccc2c1C(=O)N(C1CCC(=O)NC1=O)C2 (stereo not shown) [Example 90]

Marked response:
1: 16; 2: 19; 3: 26; 4: 10

----------
Test system: Phospho-Rb (Ser807/811)
Assay summary: Phospho-Retinoblastoma (pRB) Cellular Assay
Assay type: cell-based
Recorded conditions: Homo sapiens, OVCAR-3; NIH OVCAR3 cells, 24 hours; concentration giving 50% response
Reported endpoint: IC50 (nM)
Answers are plain numbers, in nM.

Known results for molecules:
COc1c(COC(=O)Nc2ccc(Oc3ccccc3C3CC3)cc2)ccc2c1C(=O)N(C1CCC(=O)NC1=O)C2 (centres unmarked); 272
O=C1CCC(N2Cc3ccc(COC(=O)Nc4ccc(Oc5ccccc5)cc4)c(OC4CCOCC4)c3C2=O)C(=O)N1 (centres unmarked); 14
CC(C)Oc1c(COC(=O)Nc2ccc(Oc3ccc(F)c(F)c3)cc2F)ccc2c1C(=O)N(C1CCC(=O)NC1=O)C2 (centres unmarked); 54
CCN(C)C(=O)COc1c(COC(=O)Nc2ccc(Oc3ccc(F)c(F)c3)cc2)ccc2c1C(=O)N(C1CCC(=O)NC1=O)C2 (centres unmarked); 161
COc1cccc(Oc2ccc(NC(=O)OCc3ccc4c(c3OC)C(=O)N(C3CCC(=O)NC3=O)C4)cc2)c1 (centres unmarked); 498
COc1cc(Oc2cc(F)c(F)c(F)c2)ccc1NC(=O)OCc1ccc2c(c1OC)C(=O)N(C1CCC(=O)NC1=O)C2 (centres unmarked); 364
COc1c(COC(=O)Nc2ccc(Oc3cccc(F)c3)cc2Cl)ccc2c1C(=O)N(C1CCC(=O)NC1=O)C2 (centres unmarked); 1180
COc1c(COC(=O)Nc2ccc(Oc3ccc(Cl)c(F)c3)cc2F)ccc2c1C(=O)N(C1CCC(=O)NC1=O)C2 (centres unmarked); 160

For every listed record, write down its IC50.
1. COc1c(COC(=O)Nc2ccc(Oc3cc(F)ccc3Cl)cc2)ccc2c1C(=O)N(C1CCC(=O)NC1=O)C2 (centres unmarked)
2. O=C1CCC(N2Cc3ccc(COC(=O)Nc4ccc(Oc5ccc(F)c(F)c5)cc4)c(OC4CCCC4)c3C2=O)C(=O)N1 (centres unmarked)
3. COc1c(COC(=O)Nc2ccc(C(C)(C)c3ccccc3)cc2)ccc2c1C(=O)N(C1CCC(=O)NC1=O)C2 (centres unmarked)

Marked response:
1: 178; 2: 31; 3: 248

----------
System tested: Cyclin E1 (Homo sapiens, UniProt P24864+Q96SW2)
Assay summary: Cyclin E1 Cellular Degradation Assay (MSD)
Assay type: cell-based
Parameters: endogenous in cells; host or cells: OVCAR3
Recorded conditions: Cyclin E1 cellular degradation
Friendly reminder: DC50 below 100 nM is True, at or above is False.

Exam item: DC50 strictly < 100 nM for this molecule? O=C1CCC(N2Cc3ccc(COC(=O)Nc4ccc(Oc5ccc(F)c(F)c5)cc4)c(Oc4ccccc4)c3C2=O)C(=O)N1 (stereo not drawn)
Marked response: False

----------
System tested: GSPT1 (Homo sapiens, UniProt P15170+Q96SW2)
Assay summary: GSPT1 Cellular Degradation Assay (DF15-GSPT1-ePL)
Assay type: cell-based
Parameters: expressed in transfected cells
Recorded conditions: DF15-GSPT1-ePL cells, 20 hours
Hi there, I'd appreciate the recorded Dmax for every entry that follows.
Give bare numbers, in %.

Below: 4 molecules and their reported Dmax.
COc1c(COC(=O)Nc2ccc(Oc3ccc(F)cc3Cl)cc2F)ccc2c1C(=O)N(C1CCC(=O)NC1=O)C2 (centres unmarked) [Example 105]; 50
COc1c(COC(=O)Nc2ccc(Oc3ccc(F)c(F)c3)cc2)ccc2c1C(=O)N(C1CCC(=O)NC1=O)C2 (centres unmarked) [Example 1]; 27
COc1c(COC(=O)Nc2ccc(Oc3cccc(F)c3)cc2Cl)ccc2c1C(=O)N(C1CCC(=O)NC1=O)C2 (centres unmarked) [Example 27]; 30
COc1cc(Oc2ccccc2C(F)F)ccc1NC(=O)OCc1ccc2c(c1OC)C(=O)N(C1CCC(=O)NC1=O)C2 (centres unmarked) [Example 88]; 30

Exam item: I'm curious: which Dmax was measured for COc1cc(Oc2cc(F)c(F)cc2C)ccc1NC(=O)OCc1ccc2c(c1OC)C(=O)N(C1CCC(=O)NC1=O)C2 (centres unmarked) [Example 73] tested on GSPT1 (Homo sapiens, UniProt P15170+Q96SW2)?
Marked response: 27

----------
System tested: Cyclin E1 (Homo sapiens, UniProt P24864+Q96SW2)
Assay summary: Cyclin E1 Cellular Degradation Assay (MSD)
Type: cell-based
Parameters: endogenous in cells; host or cells: OVCAR3
Recorded conditions: Cyclin E1 cellular degradation, maximum degradation
Procedure: Culturing cells: On Day 0, OVCAR3 cells were plated at 15,000 cells/well in 40 μL of culture medium (RPMI1640, 20% FBS, 0.01 insulin, 1% Anti/Anti) in a 384 well cell culture plate. Cell cultures were incubated for 24 hours at 37° C. and 5% CO2. […] Collecting data: After thawing, 25 μL of lysate was transferred to a coated MSD plate. […] After the final wash, 35 μL of 1× Read Buffer (MSD R92TC-1) was added to each well and the data was captured using the MSD plate reader. […]
Would you mind telling me the reported Dmax of each entry?
One number for each entry, in %.

Worked set:
COc1c(COC(=O)Nc2ccc(Oc3cc(F)ccc3Cl)cc2)ccc2c1C(=O)N(C1CCC(=O)NC1=O)C2 (stereo not shown); 106
COc1c(COC(=O)Nc2ccc(Oc3ccc4ccsc4c3)cc2)ccc2c1C(=O)N(C1CCC(=O)NC1=O)C2 (stereo not shown); 108
COc1c(COC(=O)Nc2ccc(Oc3cc(F)c(F)c(F)c3)cc2F)ccc2c1C(=O)N(C1CCC(=O)NC1=O)C2 (stereo not shown); 109

Please give Dmax, item by item, for the list that follows.
1. COc1cc(Oc2cc(F)c(F)cc2F)ccc1NC(=O)OCc1ccc2c(c1OC)C(=O)N(C1CCC(=O)NC1=O)C2 (stereo not shown)
2. COc1c(COC(=O)Nc2ccc(Oc3cccc(Cl)c3)cc2)ccc2c1C(=O)N(C1CCC(=O)NC1=O)C2 (stereo not shown)
3. COc1c(COC(=O)Nc2ccc(Oc3cc(C)cc(C)c3)cc2)ccc2c1C(=O)N(C1CCC(=O)NC1=O)C2 (stereo not shown)
4. O=C1CCC(N2Cc3ccc(COC(=O)Nc4ccc(Oc5ccccc5F)cc4)c(Oc4ccccc4)c3C2=O)C(=O)N1 (stereo not shown)
5. COCCOc1c(COC(=O)Nc2ccc(Oc3ccc(F)c(F)c3)cc2F)ccc2c1C(=O)N(C1CCC(=O)NC1=O)C2 (stereo not shown)
6. COc1c(COC(=O)Nc2ccc(Oc3c(F)cccc3F)cc2)ccc2c1C(=O)N(C1CCC(=O)NC1=O)C2 (stereo not shown)
7. COc1c(COC(=O)Nc2ccc(Oc3ccc(Cl)c(Cl)c3)cc2F)ccc2c1C(=O)N(C1CCC(=O)NC1=O)C2 (stereo not shown)

Marked response:
1: 107; 2: 112; 3: 100; 4: 101; 5: 104; 6: 105; 7: 108

Each molecule below has a recorded value; state its Dmax.
1. COc1c(COC(=O)Nc2ccc(Oc3cccc(F)c3F)cc2F)ccc2c1C(=O)N(C1CCC(=O)NC1=O)C2 (stereo not shown)
2. O=C1CCC(N2Cc3ccc(COC(=O)Nc4ccc(Oc5ccc(F)c(F)c5)cc4)c(OC4CCC4)c3C2=O)C(=O)N1 (stereo not shown)
3. O=C1CCC(N2Cc3ccc(COC(=O)Nc4ccc(Oc5ccc(F)cc5F)cc4F)c(O[C@@H]4CCCOC4)c3C2=O)C(=O)N1 (stereo partly shown)
4. O=C1CCC(N2Cc3ccc(COC(=O)Nc4ccc(Oc5ccccc5)cc4)c(OC(F)F)c3C2=O)C(=O)N1 (stereo not shown)
5. COc1c(COC(=O)Nc2ccc(Oc3cccc(F)c3)cc2F)ccc2c1C(=O)N(C1CCC(=O)NC1=O)C2 (stereo not shown)
6. O=C1CCC(N2Cc3ccc(COC(=O)Nc4ccc(Oc5ccccc5)cc4)c(Oc4ccccc4)c3C2=O)C(=O)N1 (stereo not shown)

Marked response:
109
107
110
104
107
102

Hi there! I need Dmax for each item below, if you can.
1. O=C1CCC(N2Cc3ccc(COC(=O)Nc4ccc(Oc5cc(F)cc(F)c5)cc4F)c(OC4CCOCC4)c3C2=O)C(=O)N1 (stereo not shown)
2. O=C1CCC(N2Cc3ccc(COC(=O)Nc4ccc(Oc5ccc(F)c(F)c5)cc4)c(OC(F)F)c3C2=O)C(=O)N1 (stereo not shown)
3. O=C1CCC(N2Cc3ccc(COC(=O)Nc4ccc(Oc5ccc(F)cc5)cc4)c(OC4CCOCC4)c3C2=O)C(=O)N1 (stereo not shown)
4. COc1c(COC(=O)Nc2ccc(Oc3ccc(F)cc3)cc2F)ccc2c1C(=O)N(C1CCC(=O)NC1=O)C2 (stereo not shown)
5. COc1cc(Oc2ccc(F)cc2F)ccc1NC(=O)OCc1ccc2c(c1OC)C(=O)N(C1CCC(=O)NC1=O)C2 (stereo not shown)
6. COc1ccccc1Oc1ccc(NC(=O)OCc2ccc3c(c2OC)C(=O)N(C2CCC(=O)NC2=O)C3)cc1 (stereo not shown)

Marked response:
1: 105; 2: 104; 3: 106; 4: 103; 5: 106; 6: 83
